Biological target: Alpha-1B adrenergic receptor (Homo sapiens)
Sequence (P35368 whole entry): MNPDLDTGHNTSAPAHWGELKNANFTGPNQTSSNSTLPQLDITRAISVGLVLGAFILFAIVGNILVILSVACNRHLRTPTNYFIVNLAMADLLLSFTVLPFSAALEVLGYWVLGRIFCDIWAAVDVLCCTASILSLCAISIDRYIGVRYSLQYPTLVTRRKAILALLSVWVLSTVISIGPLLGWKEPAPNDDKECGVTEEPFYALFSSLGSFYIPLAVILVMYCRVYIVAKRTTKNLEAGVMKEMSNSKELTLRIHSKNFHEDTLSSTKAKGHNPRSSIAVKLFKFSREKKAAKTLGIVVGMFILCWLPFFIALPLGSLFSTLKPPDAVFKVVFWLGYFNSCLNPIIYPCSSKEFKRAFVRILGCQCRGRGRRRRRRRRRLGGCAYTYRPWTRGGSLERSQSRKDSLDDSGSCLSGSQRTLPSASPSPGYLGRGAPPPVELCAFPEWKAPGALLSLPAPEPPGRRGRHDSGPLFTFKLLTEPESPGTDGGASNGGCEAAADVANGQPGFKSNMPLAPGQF
Metric: pKi
Give bare numbers, as −log10 of the molar value.

c1ccc2c(c1)C[C@]1(c3cnc[nH]3)C[C@H]21 (stereo in doubt; (+)-1); 8.45
C[C@]12CC1(c1c[nH]cn1)Cc1ccccc12 (single isomer, unassigned); 7.40
CC(C)O[C@H]1c2ccccc2[C@H]2C[C@]21c1c[nH]cn1 (relative stereo); 6.50

Now for the compound whose pKi we want.
Task: Please provide the recorded pKi for CO[C@H]1c2ccccc2[C@H]2C[C@]21c1c[nH]cn1 (relative stereo) , tested on Alpha-1B adrenergic receptor (Homo sapiens).
Result: 6.99

Where do these numbers come from? They come from ChEMBL document CHEMBL1255566.
